Listing of entries alongside the reported pIC50.
Study system: Cholinesterase (Equus caballus, UniProt P81908)
Sequence (P81908 whole entry): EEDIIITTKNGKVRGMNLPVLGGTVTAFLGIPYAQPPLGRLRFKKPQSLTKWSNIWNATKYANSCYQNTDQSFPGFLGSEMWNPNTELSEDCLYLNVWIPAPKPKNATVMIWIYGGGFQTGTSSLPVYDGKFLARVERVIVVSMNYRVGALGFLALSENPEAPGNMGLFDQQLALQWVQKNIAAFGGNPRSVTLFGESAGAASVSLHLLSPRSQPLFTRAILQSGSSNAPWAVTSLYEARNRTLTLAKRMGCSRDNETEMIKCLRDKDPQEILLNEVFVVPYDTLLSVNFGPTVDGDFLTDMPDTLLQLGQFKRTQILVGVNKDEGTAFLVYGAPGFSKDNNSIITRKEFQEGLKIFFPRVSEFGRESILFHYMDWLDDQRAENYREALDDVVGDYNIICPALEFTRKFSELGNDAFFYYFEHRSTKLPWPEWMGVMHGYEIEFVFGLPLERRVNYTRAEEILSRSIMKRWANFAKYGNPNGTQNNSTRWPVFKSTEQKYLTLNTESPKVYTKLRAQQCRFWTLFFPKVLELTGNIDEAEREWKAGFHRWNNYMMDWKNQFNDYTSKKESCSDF
Method: Inhibition of BuChE in equine serum using butylthiocholine iodide as substrate by Ellman's method
In textbook form, pIC50 equals minus log to base ten of the concentration in mol/L.

Consider the following illustrative entries.
CCN(C)C(=O)Oc1cccc2c1C(CCN)CN2.Cl.Cl (stereo unspecified) :: 6.70
CCN(C)C(=O)Oc1ccc2c(c1)N(CCC(=O)OC)CC2.Cl :: 5.17
CCN(C)C(=O)Oc1ccc2c(c1)NCC2CCC(=O)OC.Cl (stereo unspecified) :: 5.41
CCN(C)C(=O)Oc1cccc2c1CCN2CCC(=O)OC.Cl :: 6.15
CCN(C)C(=O)Oc1cccc2c1C(CCC(=O)OC)CN2.Cl (stereo unspecified) :: 6.52

Lab request: please report pIC50 under test system Cholinesterase (Equus caballus, UniProt P81908) for CCN(C)C(=O)Oc1cccc2c1C(CCCN)CN2.Cl (stereo unspecified)
5.92

Could you do the same for CCN(C)C(=O)Oc1ccc2c(c1)NCC2CCN(C)C.Cl (stereo unspecified) , please?
5.66

Queued: CCN(C)C(=O)Oc1ccc2c(c1)N(CCCN(C)C)CC2.Cl
5.37

----------
Study system: Acetylcholinesterase (Bos taurus)
Sequence (P23795 whole entry): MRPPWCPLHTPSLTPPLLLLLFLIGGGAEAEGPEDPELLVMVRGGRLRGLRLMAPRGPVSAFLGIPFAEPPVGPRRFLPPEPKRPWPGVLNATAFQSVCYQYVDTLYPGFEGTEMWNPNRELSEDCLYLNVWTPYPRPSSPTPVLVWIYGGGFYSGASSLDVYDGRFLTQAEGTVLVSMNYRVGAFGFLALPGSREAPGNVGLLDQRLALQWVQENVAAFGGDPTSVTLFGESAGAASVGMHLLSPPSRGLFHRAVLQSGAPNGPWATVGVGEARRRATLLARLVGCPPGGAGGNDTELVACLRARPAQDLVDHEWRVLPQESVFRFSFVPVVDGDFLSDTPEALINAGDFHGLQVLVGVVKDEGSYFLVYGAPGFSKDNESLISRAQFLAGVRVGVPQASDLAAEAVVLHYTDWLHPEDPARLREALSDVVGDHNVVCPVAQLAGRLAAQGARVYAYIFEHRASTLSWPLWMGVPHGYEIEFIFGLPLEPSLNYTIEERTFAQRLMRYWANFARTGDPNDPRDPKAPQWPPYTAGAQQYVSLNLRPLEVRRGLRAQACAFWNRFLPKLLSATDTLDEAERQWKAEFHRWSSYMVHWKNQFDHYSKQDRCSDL
Method: Inhibition of AChE in bovine erythrocytes using acetylthiocholine iodide as substrate by Ellman's method
The reader will find reported pIC50 values listed item by item below.
Here pIC50 is given on a logarithmic scale as minus log10 of the concentration in mol/L.

CCN(C)C(=O)Oc1ccc2c(c1)NCC2CCN(C)C.Cl (stereo unspecified) :: 4.67
CCN(C)C(=O)Oc1cccc2c1C(CCCN)CN2.Cl (stereo unspecified) :: 5.74
CCN(C)C(=O)Oc1ccc2c(c1)NCC2CCCN.Cl (stereo unspecified) :: 4.44
CCN(C)C(=O)Oc1cccc2c1C(CCN(C)C)CN2.Cl (stereo unspecified) :: 5.89
CCN(C)C(=O)Oc1ccc2c(c1)N(CCCN(C)C)CC2.Cl :: 4.32

From here, focus on the item given below.
Any idea what pIC50 was measured for CCN(C)C(=O)Oc1cccc2c1CCN2CCCN(C)C.Cl ?
5.43
